Test: Cell Viability - N2a (AID 540);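 further: cells exposed to compound for 40 h at 37 °C; nearly all actives have a fitted effect of over 45% in size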
Conditions: N2a mouse neuroblastoma cell viability; at 92.2 µM (top of the series)
Results filed as inconclusive are left out. The source made the active and inactive calls. The call rests on the fitted dose curve; in most records, active means well fitted cell-killing curve with a large enough effect; inconclusive means small, poorly fitted or top-dose-only effect; inactive means flat fitted curve, though single readings scatter.
# output must be one of true for active, false for inactive

Cc1cc(CC(=O)O)n(C)c1C(=O)c1ccc(Cl)cc1 | false

Continue with the next compound.
Answer briefly: the call reported for `CC12CCC(CC1)C(C)(C)O2` in this assay.
false

----------
System: CP237
Assay: qHTS profiling for inhibitors of Plasmodium falciparum proliferation (AID 504749); further: nearly all actives have a fitted effect of over 60% in size
Conditions: P. falciparum in erythrocytes, SYBR Green DNA, 72 h; series mostly up to 28.7 µM
Results filed as inconclusive are left out. Calls of active or inactive are those of the source. Calls come from the whole dose curve; as a rule, active = well fitted inhibition curve with a large enough effect; inconclusive = small, poorly fitted or top-dose-only effect; inactive = flat fitted curve, though single readings scatter.
# output must be one of y = active, n = inactive

Nc1ccc(S(=O)(=O)NC(=O)c2ccccc2)cc1 | n
Cn1c(=O)c2c(ncn2CC2OCCO2)n(C)c1=O | n
CC(=O)Nc1ccc(/C=N/NC(N)=S)cc1 | n

Answer briefly: the call reported for Cc1cc(C(C#N)c2ccc(Cl)cc2)c(Cl)cc1NC(=O)c1cc(I)cc(I)c1O (stereo unspecified) in this assay.
n

Answer briefly: the call reported for `CCN(CC)CCNC(=O)c1c(C)[nH]c(/C=C2\C(=O)Nc3ccc(F)cc32)c1C` in this assay.
y

Answer briefly: the call reported for `CCCCOc1cc(C(=O)OCCN(CC)CC)ccc1N` in this assay.
n
